MEASURED_ON: GABA transporter (Mus musculus)
PROTOCOL_DETAILS: Inhibition of [3H]GABA uptake in mouse neurons after 3 mins by scintillation counting analysis
EXPERIMENTAL_ENDPOINT: IC50

The recorded IC50 for CN[C@H]1CCCC[C@H]1C(=O)O (relative stereo) is > 300 µM

The recorded IC50 for CN[C@@H]1CCCC[C@H]1C(=O)O (relative stereo) is > 300 µM

The recorded IC50 for CNC1CCCc2onc(O)c21 (stereo not drawn) is 405 µM

* * *

MEASURED_ON: Sodium- and chloride-dependent GABA transporter 1 (Mus musculus)
PROTOCOL_DETAILS: Inhibition of [3H]GABA uptake at mouse GAT1 expressed in HEK293 cells after 3 mins by scintillation counting analysis
EXPERIMENTAL_ENDPOINT: pIC50
Recall that pIC50 is obtained by taking minus log10 of the concentration measured in molar.

The recorded pIC50 for Cc1ccsc1C(=CCCN(C)C1CCCC=C1C(=O)O)c1sccc1C (stereo unspecified) is 3.51

The recorded pIC50 for Cc1ccsc1C(=CCCN(C)C1CCCc2o[nH]c(=O)c21)c1sccc1C (stereo unspecified) is 5.15

The recorded pIC50 for CNC1CCCc2onc(O)c21 (stereo unspecified) is 3.35

The recorded pIC50 for Cc1ccsc1C(=CCCN(C)C1CCC=C1C(=O)O)c1sccc1C (stereo unspecified) is 4.77

The recorded pIC50 for Cc1ccsc1C(=CCCN(C)[C@H]1CCCC[C@@H]1C(=O)O)c1sccc1C (relative stereo) is 3.56

* * *

MEASURED_ON: GABA transporter 4 (Mus musculus)
Sequence (P31650 whole entry): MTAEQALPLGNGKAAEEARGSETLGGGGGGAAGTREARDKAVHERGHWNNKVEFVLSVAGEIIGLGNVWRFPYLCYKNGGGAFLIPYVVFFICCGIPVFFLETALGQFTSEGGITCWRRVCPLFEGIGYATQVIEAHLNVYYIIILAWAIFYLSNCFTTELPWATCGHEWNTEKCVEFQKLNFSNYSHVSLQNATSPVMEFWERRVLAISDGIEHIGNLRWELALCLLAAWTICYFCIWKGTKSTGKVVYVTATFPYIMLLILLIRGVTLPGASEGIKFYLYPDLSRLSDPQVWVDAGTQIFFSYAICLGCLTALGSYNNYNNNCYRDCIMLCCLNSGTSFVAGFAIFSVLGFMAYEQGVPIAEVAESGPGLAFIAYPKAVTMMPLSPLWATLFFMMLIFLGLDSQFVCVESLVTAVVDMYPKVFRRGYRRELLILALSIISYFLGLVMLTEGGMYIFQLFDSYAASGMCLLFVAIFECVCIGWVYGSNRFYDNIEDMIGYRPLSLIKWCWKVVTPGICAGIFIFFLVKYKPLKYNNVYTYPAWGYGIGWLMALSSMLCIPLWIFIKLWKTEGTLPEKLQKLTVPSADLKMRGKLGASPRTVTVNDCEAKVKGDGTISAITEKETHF
PROTOCOL_DETAILS: Inhibition of [3H]GABA uptake at mouse GAT4 expressed in HEK293 cells after 3 mins by scintillation counting analysis
Type: cell-based
TEST_CONDITIONS: read-out: IC50
EXPERIMENTAL_ENDPOINT: IC50

The recorded IC50 for Cc1ccsc1C(=CCCN(C)[C@H]1CCCC[C@@H]1C(=O)O)c1sccc1C (relative stereo) is > 300 µM

The recorded IC50 for CNC1CCCc2onc(O)c21 (stereo not given) is > 3000 µM

The recorded IC50 for Cc1ccsc1C(=CCCN(C)C1CCCC=C1C(=O)O)c1sccc1C (stereo not given) is 286 µM

The recorded IC50 for CNC1CCCC=C1C(=O)O (stereo not given) is > 1000 µM

The recorded IC50 for CN[C@@H]1CCCC[C@H]1C(=O)O (relative stereo) is > 3000 µM

The recorded IC50 for Cc1ccsc1C(=CCCN(C)[C@@H]1CCCC[C@@H]1C(=O)O)c1sccc1C (relative stereo) is > 300 µM

The recorded IC50 for Cc1ccsc1C(=CCCN(C)C1CCC=C1C(=O)O)c1sccc1C (stereo not given) is > 300 µM

The recorded IC50 for Cc1ccsc1C(=CCCN1CCC[C@@H](C(=O)O)C1)c1sccc1C [TIAGABINE] is 800 µM

The recorded IC50 for CNC1C2C=CC(C2)C1C(=O)O (stereo not given) is > 500 µM

The recorded IC50 for Cc1ccsc1C(=CCCN(C)C1C2C=CC(C2)C1C(=O)O)c1sccc1C (stereo not given) is > 300 µM

* * *

Provide the recorded pIC50 for the entries that follow.
MEASURED_ON: Sodium- and chloride-dependent GABA transporter 1 (Mus musculus)
PROTOCOL_DETAILS: Inhibition of [3H]GABA uptake at mouse GAT1 expressed in HEK293 cells after 3 mins by scintillation counting analysis
pIC50: −log10 of the molar value.

The recorded pIC50 for CN[C@@H]1CCCC[C@H]1C(=O)O (relative stereo) is < 2.52

The recorded pIC50 for CN[C@H]1CCCC[C@H]1C(=O)O (relative stereo) is < 2.52

The recorded pIC50 for Cc1ccsc1C(=CCCN(C)[C@@H]1CCCC[C@@H]1C(=O)O)c1sccc1C (relative stereo) is < 3.52

Data origin, for the record: ChEMBL document CHEMBL2321777
